- STUDY_CONDITIONS: in n-pentanol, 298.15 K
REPORTED_METRIC: solubility (mole fraction)
Please give only the number in your answer, with no unit.

What does the record list as solubility (mole fraction) for "Cc1c(C(=O)O)cc([N+](=O)[O-])cc1[N+](=O)[O-]" ?
0.0165

###

- STUDY_CONDITIONS: in toluene, 298.15 K
REPORTED_METRIC: solubility (mole fraction)
Give a plain numeric answer without units written out.

I have this molecule here, "Cc1c(C(=O)O)cc([N+](=O)[O-])cc1[N+](=O)[O-]" , and I need its recorded solubility (mole fraction).
0.0242

###

- STUDY_CONDITIONS: in n-pentanol, 293.15 K
REPORTED_METRIC: solubility (mole fraction)
The response must contain the number and no unit.

Give the measured solubility (mole fraction) of "Cc1c(C(=O)O)cc([N+](=O)[O-])cc1[N+](=O)[O-]" .
0.0138
